- System Name: Tyrosine-protein kinase ABL1 (Homo sapiens); further: in the data inactive means no Kd found up to 30 µM
- Sequence (P00519 whole entry): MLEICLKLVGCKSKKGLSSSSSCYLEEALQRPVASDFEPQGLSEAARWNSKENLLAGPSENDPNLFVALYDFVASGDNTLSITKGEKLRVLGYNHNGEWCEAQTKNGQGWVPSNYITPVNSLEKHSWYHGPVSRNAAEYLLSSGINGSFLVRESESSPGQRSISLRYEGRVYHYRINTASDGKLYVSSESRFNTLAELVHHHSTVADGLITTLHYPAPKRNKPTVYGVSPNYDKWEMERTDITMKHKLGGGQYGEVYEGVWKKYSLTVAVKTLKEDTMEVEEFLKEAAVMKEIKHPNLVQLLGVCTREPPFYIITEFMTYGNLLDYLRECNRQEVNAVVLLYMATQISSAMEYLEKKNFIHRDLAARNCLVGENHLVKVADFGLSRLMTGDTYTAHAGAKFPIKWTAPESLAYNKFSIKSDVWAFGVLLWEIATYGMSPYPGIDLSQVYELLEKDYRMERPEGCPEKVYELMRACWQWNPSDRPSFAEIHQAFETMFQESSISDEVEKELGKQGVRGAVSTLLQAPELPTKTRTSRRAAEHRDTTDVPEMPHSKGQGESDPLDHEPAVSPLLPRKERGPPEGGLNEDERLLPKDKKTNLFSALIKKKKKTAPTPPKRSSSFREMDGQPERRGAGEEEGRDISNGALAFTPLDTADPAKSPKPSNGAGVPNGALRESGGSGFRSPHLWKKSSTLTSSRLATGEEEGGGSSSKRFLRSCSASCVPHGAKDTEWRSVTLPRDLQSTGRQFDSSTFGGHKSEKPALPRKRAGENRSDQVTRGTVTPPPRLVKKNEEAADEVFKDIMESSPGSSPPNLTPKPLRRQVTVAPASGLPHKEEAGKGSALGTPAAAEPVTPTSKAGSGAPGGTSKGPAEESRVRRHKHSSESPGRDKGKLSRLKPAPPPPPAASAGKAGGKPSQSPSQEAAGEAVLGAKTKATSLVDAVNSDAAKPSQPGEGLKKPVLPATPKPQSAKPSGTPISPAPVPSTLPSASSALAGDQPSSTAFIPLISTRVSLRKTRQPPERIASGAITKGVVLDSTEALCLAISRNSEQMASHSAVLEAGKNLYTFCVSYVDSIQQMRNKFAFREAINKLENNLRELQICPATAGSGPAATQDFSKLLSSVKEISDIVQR
Structures can show the parent of a compound that is named as a salt. Activity calls are given as the source filed them.
Respond only with the outcome that fits, drawn from active, inactive

Look over these answered cases.
- Molecule: "COc1cc2ncnc(Oc3cccc(NC(=O)Nc4cc(C(C)(C)C(F)(F)F)on4)c3)c2cc1OC"
  Cat: "active"
- Molecule: "Cn1cnc2c(F)c(Nc3ccc(Br)cc3F)c(C(=O)NOCCO)cc21"
  Cat: "inactive"
- Molecule: "COCC(=O)NC/C=C/c1ccc2ncnc(Nc3ccc(Oc4ccc(C)nc4)c(C)c3)c2c1"
  Cat: "inactive"
- Molecule: "CCNC(=O)C#Cc1ccc2c(c1)NC(=O)/C2=C(\\Nc1ccc(CN(C)C)cc1)c1ccccc1"
  Cat: "active"

Task item: Each molecule tested received a call. Report the one for CCS(=O)(=O)N1CCN(c2ccc(Nc3ncc(C(N)=O)c(NC4CC4)n3)cc2)CC1 [Cerdulatinib Hydrochloride] .
Reply: inactive

Task item: Next molecule up: O=C(Cc1ccc(-c2ccc(OCCN3CCOCC3)cc2)cn1)NCc1ccccc1
Reply: inactive

Task item: Please answer likewise for Cn1cc(-c2cnc3ccc4ccc(CS(=O)(=O)NCc5ccccn5)cc4c(=O)c3c2)cn1
Reply: inactive
